B1: Zinc finger MYM-type protein 3, residues 405 to 444; numbered along this chain, Q14202 (parent)
chain: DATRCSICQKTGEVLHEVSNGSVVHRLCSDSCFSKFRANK

Variants of: B1
Test: abundance fitness (aPCA) (normalised: wild type 0, dead -1); higher = more abundant; growth selection in yeast, the domain comes from the species named
Particulars: Homo sapiens
Measured Quantity: abundance fitness
Answers are plain numbers.

The examples below pair each entry with its known result.
Mut: G12S
Observed: -0.115
--
Mut: C28F
Observed: -1.09
--
Mut: S31R
Observed: 0.047
--
Mut: R26H
Observed: -0.074
--
Mut: H25L
Observed: -0.266

For every record below, what is its abundance fitness?
1. T3P
2. S29R
3. D1P
4. S19R
5. A38Y
6. G21M
7. H25V

Found:
1: -0.561; 2: -0.684; 3: -0.32; 4: -0.078; 5: -0.338; 6: -0.243; 7: -0.507

For every record below, what is its abundance fitness?
1. N20I
2. F33A
3. Q9A
4. V18F
5. H16F
6. V24L
7. Q9D

Found:
0.047
0.134
-0.585
-0.095
-0.208
-0.077
-0.293

For every record below, what is its abundance fitness?
1. L27I
2. S31H
3. V23A
4. A38H
5. C8Q
6. D30M
7. K35F
8. K35H

Found:
1. -0.129
2. -0.16
3. -0.085
4. -0.524
5. -0.993
6. -0.28
7. 0.052
8. -0.03
